# EXPERIMENTAL TARGET: Recombinant STAT6 protein (STAT6(W123-T658)) (Homo sapiens)
# Construct: Recombinant STAT6 protein (STAT6(W123-T658))
# ASSAY INFO: STAT6 Fluorescence Polarization (FP) Assay
# SETUP CONDITIONS: STAT6(W123-T658) 250 nM, probe 5-FAM-ApYKPFQDLI-NH2 2 nM, 45-minute incubation

| GIVEN SMILES | IC50 |
| --- | --- |
| CC(=O)N1CC[C@H]2CC[C@@H](C(=O)N3CCC[C@H]3Cc3ccccc3)N2C(=O)[C@@H](NC(=O)c2ccc3ccc(C(F)(F)P(=O)(O)O)cc3c2)C1 | 300 to 3000 nM |
| COc1cc(C(=O)N[C@H]2CN(C(=O)c3noc4ccc(C)cc34)CC[C@H]3CC[C@@H](C(=O)N4CCOCC4)N3C2=O)cc2cc(CP(=O)(O)O)ccc12 | 300 to 3000 nM |
| CC(=O)N1CC[C@H]2CC[C@@H](C(=O)Nc3ccccc3)N2C(=O)[C@@H](NC(=O)c2cc3cc(C(F)(F)P(=O)(O)O)ccc3s2)C1 | 300 to 3000 nM |

---

# EXPERIMENTAL TARGET: Recombinant STAT3 protein (STAT3(G127-I722)) (Homo sapiens, UniProt P40763)
# Construct: Recombinant STAT3 protein (STAT3(G127-I722))
# Sequence (P40763 127-722): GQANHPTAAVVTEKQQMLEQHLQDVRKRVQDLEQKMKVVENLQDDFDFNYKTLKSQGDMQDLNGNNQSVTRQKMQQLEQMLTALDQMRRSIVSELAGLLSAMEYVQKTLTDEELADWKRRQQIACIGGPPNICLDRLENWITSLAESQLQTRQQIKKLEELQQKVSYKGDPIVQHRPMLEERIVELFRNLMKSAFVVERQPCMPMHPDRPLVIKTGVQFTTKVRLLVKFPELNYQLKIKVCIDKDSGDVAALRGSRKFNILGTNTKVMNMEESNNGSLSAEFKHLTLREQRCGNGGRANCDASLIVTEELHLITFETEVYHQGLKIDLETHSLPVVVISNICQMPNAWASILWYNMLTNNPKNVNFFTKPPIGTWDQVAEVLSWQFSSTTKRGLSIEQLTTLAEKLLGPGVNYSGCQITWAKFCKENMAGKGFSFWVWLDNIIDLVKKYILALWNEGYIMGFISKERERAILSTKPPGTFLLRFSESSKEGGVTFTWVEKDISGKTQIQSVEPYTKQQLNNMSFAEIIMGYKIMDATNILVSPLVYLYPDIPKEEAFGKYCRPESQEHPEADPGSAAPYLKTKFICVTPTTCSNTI
# ASSAY INFO: STAT3 Fluorescence Polarization (FP) Assay
# SETUP CONDITIONS: STAT3(G127-I722) 25 nM, probe 5-FAM-GpYLPQTV-NH2 2 nM, 45-minute incubation
As shown below, each of these compounds has a reported IC50 value.

| COMPOUND | IC50 |
| --- | --- |
| CC(=O)N1CC[C@H]2CC[C@@H](C(=O)N3C[C@H](C(N)=O)[C@@H](c4ccccc4)C3)N2C(=O)[C@@H](NC(=O)c2cc3cc(C(F)(F)P(=O)(O)O)ccc3s2)C1 (single isomer, unassigned) | 1000 to 10000 nM |
| CC(=O)N1CC[C@H]2CC[C@@H](C(=O)N(C)c3ccccc3)N2C(=O)[C@@H](NC(=O)c2cc3cc(C(CO)P(=O)(O)O)ccc3s2)C1 (some centres unmarked) | > 10000 nM |
| CC(=O)N1CC[C@H]2CC[C@@H](C(=O)Nc3ccc4ccnnc4c3)N2C(=O)[C@@H](NC(=O)c2cc3cc(C(F)(F)P(=O)(O)O)ccc3s2)C1 | 1000 to 10000 nM |
| CC(=O)N1CC[C@H]2CC[C@@H](C(=O)Nc3c(C)cc(-c4ccccc4)cc3C)N2C(=O)[C@@H](NC(=O)c2cc3cc(C(F)(F)P(=O)(O)O)ccc3s2)C1 | 100 to 1000 nM |
| CN(C(=O)[C@@H]1CC[C@@H]2CCN(C(=O)CCc3ccccc3)C[C@H](NC(=O)c3cc4cc(C(F)(F)P(=O)(O)O)ccc4[nH]3)C(=O)N21)c1ccccc1 | 1000 to 10000 nM |

---

# EXPERIMENTAL TARGET: Recombinant STAT6 protein (STAT6(W123-T658)) (Homo sapiens, UniProt P42226)
# Construct: Recombinant STAT6 protein (STAT6(W123-T658))
# Sequence (P42226 123-658): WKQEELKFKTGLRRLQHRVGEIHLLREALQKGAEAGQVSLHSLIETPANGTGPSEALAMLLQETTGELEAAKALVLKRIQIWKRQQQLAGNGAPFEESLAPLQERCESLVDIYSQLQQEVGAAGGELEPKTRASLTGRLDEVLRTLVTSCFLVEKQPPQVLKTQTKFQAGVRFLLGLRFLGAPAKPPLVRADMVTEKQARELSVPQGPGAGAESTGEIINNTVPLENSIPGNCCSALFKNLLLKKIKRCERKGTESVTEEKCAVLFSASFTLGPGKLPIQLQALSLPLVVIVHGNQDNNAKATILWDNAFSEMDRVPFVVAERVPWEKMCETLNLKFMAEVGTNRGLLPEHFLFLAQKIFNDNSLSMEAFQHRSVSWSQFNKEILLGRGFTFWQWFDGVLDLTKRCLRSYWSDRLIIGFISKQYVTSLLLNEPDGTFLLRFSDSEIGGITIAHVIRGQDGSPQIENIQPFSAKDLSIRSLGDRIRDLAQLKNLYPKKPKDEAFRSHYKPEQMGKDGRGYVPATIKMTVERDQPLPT
# ASSAY INFO: STAT6 Fluorescence Polarization (FP) Assay
# SETUP CONDITIONS: STAT6(W123-T658) 250 nM, probe 5-FAM-ApYKPFQDLI-NH2 2 nM, 45-minute incubation
pIC50: −log10 of the molar value.
As shown below, each of these molecules has a reported pIC50 value.

| MOLECULE | pIC50 |
| --- | --- |
| CC(=O)N1CC[C@H]2CC[C@@H](C(=O)N3CCC(N4CCCS4(=O)=O)C3)N2C(=O)[C@@H](NC(=O)c2cc3cc(C(F)(F)P(=O)(O)O)ccc3s2)C1 (stereo partly shown) [Compound 78] | 5.52 to 6.52 |
| Cc1ccc2onc(C(=O)N3CC[C@H]4CC[C@@H](C(=O)N5CCN(c6nsc7ccccc67)CC5)N4C(=O)[C@@H](NC(=O)c4ccc5ccc(C(F)P(=O)(O)O)cc5c4)C3)c2c1 (stereo partly shown) [Compound 369] | ≥ 6.52 |
| CC(=O)N1CC[C@H]2CC[C@@H](C(=O)N3CCC(c4cnc5n4CCCC5)C3)N2C(=O)[C@@H](NC(=O)c2cc3cc(C(F)(F)P(=O)(O)O)ccc3s2)C1 (stereo partly shown) [Compound 81] | 5.52 to 6.52 |
| CC(=O)N1CC[C@H]2CC[C@@H](C(=O)N(C)c3ccccc3)N2C(=O)[C@@H](NC(=O)c2nc3cc(C(F)(F)P(=O)(O)O)ccc3s2)C1 [Compound 115] | 5.52 to 6.52 |
| CC(=O)N1CC[C@H]2CC[C@@H](C(=O)N(C)c3ccc(-c4ccccc4)cc3)N2C(=O)[C@@H](NC(=O)c2cc3cc(C(F)(F)P(=O)(O)O)ccc3s2)C1 [Compound 96] | ≥ 6.52 |
| CC(=O)N1CC[C@H]2CC[C@@H](C(=O)N(C)c3ccc(-c4ccccc4)cc3)N2C(=O)[C@@H](NC(=O)c2cc3cc(C(F)(F)P(=O)(O)O)ccc3[nH]2)C1 [Compound 53] | 5.52 to 6.52 |
| Cc1ccc2onc(C(=O)N3CC[C@H]4CC[C@@H](C(=O)N5C[C@@H](c6ccn(C)c(=O)c6)CC56CC6)N4C(=O)[C@@H](NC(=O)c4ccc5ccc(C(F)(F)P(=O)(O)O)cc5c4)C3)c2c1 [Compound 383] | ≥ 6.52 |
| CC(=O)N1CC[C@H]2CC[C@@H](C(=O)N3C[C@H](C(N)=O)[C@@H](c4ccccc4)C3)N2C(=O)[C@@H](NC(=O)c2cc3cc(C(F)(F)P(=O)(O)O)ccc3s2)C1 (single isomer, unassigned) [Compound 59] | ≥ 6.52 |
| O=C(N[C@H]1CN(C(=O)NCc2ccccc2)CC[C@H]2CC[C@@H](C(=O)Nc3ccc(-c4ccccc4)cc3)N2C1=O)c1cc2cc(C(F)(F)P(=O)(O)O)ccc2s1 [Compound 251] | 5.52 to 6.52 |
| N#CC1CN(C(=O)C2CCC3CCNCC(NC(=O)c4cc5cc(C(F)(F)P(=O)(O)O)ccc5s4)C(=O)N32)CC1c1ccccc1 (mixture of isomers) [Compound 10] | ≥ 6.52 |
